Target: HIV-1 Env of pseudovirus isolate MGRM-G-028 (subtype G) (HIV-1)
Experiment: cell-based or functional assay
endpoint_name: IC50 (µg/mL)
// units = µg/mL; emit number, no label

Record excerpt, results attached:
PGT-126 (antibody, V domains shown) VH: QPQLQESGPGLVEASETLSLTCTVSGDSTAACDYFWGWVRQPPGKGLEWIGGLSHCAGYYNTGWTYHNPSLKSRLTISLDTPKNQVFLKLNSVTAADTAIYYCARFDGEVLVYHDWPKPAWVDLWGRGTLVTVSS VL: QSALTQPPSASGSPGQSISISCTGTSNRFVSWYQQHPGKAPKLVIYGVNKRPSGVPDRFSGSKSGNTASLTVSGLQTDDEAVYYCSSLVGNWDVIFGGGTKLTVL    0.012
PGT-131 (antibody, V domains shown) VH: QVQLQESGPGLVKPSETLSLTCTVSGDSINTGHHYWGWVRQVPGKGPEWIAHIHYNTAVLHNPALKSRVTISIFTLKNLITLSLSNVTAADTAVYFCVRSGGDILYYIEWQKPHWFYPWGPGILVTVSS VL: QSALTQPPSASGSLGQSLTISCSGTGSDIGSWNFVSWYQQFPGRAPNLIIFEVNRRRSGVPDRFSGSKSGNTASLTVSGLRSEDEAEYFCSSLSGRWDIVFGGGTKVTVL    0.466

Now for another entry.
For the binder PGT-130 (antibody, V domains shown) VH: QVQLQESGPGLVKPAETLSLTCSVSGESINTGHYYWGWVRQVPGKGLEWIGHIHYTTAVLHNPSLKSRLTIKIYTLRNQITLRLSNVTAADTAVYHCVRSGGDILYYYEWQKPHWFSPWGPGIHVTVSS VL: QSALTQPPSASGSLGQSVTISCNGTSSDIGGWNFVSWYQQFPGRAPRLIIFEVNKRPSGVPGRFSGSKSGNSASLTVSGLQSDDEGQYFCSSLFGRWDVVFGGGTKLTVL , give its reported IC50.
0.074

These entries and their values trace back to patent US20160264649A1.
